# ASSAY TARGET: T1, EsCas13d, nuclease-dead (Eubacterium siraeum, UniProt B0MS50, R295A;H300A;R849A;H854A)
# T1 sequence: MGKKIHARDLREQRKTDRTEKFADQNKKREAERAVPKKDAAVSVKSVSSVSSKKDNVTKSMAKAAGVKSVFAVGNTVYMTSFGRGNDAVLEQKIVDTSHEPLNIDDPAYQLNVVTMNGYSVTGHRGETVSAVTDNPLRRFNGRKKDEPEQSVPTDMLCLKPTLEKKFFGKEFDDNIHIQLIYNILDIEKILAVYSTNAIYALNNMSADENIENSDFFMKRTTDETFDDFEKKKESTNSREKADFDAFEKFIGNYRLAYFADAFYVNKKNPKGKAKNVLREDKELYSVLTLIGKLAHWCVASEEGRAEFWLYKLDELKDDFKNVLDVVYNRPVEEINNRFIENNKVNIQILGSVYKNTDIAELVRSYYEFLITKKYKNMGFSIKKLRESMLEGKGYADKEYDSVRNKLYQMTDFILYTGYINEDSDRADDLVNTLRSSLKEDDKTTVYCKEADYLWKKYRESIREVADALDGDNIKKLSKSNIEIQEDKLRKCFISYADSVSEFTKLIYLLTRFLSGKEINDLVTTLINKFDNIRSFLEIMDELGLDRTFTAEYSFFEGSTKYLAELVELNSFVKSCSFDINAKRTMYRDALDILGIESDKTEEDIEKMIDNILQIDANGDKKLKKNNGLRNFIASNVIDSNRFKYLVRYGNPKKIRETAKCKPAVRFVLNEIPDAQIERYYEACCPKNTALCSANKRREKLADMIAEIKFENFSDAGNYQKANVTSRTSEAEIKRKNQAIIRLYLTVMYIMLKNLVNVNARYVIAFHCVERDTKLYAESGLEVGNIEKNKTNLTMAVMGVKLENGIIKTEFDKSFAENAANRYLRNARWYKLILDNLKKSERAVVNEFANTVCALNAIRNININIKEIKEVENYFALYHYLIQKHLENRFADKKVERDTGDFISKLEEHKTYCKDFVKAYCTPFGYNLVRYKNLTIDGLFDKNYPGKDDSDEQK
# ASSAY EXPLANATION: crRNA (strand 1, pre-loaded); Mg2+; 40 mM Tris-HCl pH 7.5, 150 mM NaCl, 6 mM MgCl2, 1 mM DTT, 0.1% Tween-20, 0.2 mg/ml BSA; 25 C; 10 min per concentration, then washed
# RUN CONDITIONS: tags: His6-TwinStrep-SUMO cleaved; N-terminal SNAP kept (SNAP-Surface 488); label: 3' end held by stalled T7 RNA polymerase
PARAMETER: Kd (nM)
Numbers only, in nM.

Recorded Kd, per entry:
BINDER	PARAMETER	RECORDED NUMBER
target 1 MT 5'PFS GGA 3'PFS CUC (mixed) RNA 1: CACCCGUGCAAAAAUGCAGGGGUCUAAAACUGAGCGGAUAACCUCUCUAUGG RNA 2: GGGAAUGGAUCCACAUCUACGAAUUCGGACCAUAGAGAGGUUAUCCGCUCACUCAGAUCGGAAGAGCACACGU	Kd	47
target 2 MT 5'PFS CUC 3'PFS AGA (mixed) RNA 1: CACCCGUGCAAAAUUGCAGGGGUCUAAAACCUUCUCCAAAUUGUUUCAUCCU RNA 2: GGGAAUGGAUCCACAUCUACGAAUUCCUCAGGAUGAAACAAUUUGGAGAAGAGAAGAUCGGAAGAGCACACGU	Kd	1.68
target 1 U10C,G17U (mixed) RNA 1: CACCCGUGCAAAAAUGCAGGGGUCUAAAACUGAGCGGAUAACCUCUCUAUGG RNA 2: GGGAAUGGAUCCACAUCUACGAAUUCGUACCAUAUAGAGGUCAUCCGCUCACCGAGAUCGGAAGAGCACACGU	Kd	55
target 1 C4A,A18G (mixed) RNA 1: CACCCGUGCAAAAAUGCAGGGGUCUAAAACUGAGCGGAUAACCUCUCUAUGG RNA 2: GGGAAUGGAUCCACAUCUACGAAUUCGUACCAUGGAGAGGUUAUCCGAUCACCGAGAUCGGAAGAGCACACGU	Kd	68
target 1 U10G,U19C (mixed) RNA 1: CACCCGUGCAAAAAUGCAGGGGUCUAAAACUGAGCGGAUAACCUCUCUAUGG RNA 2: GGGAAUGGAUCCACAUCUACGAAUUCGUACCACAGAGAGGUGAUCCGCUCACCGAGAUCGGAAGAGCACACGU	Kd	48

Go through the items and report each one's Kd.
1. target 1 del9,del14 (mixed) RNA 1: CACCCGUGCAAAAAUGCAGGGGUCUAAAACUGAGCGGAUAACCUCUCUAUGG RNA 2: GGGAAUGGAUCCACAUCUACGAAUUCGUACCAUAGAGGGUUUCCGCUCACCGAGAUCGGAAGAGCACACGU
2. target 2 MT 5'PFS GGA 3'PFS UCC (mixed) RNA 1: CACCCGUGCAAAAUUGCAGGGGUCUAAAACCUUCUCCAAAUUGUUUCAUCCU RNA 2: GGGAAUGGAUCCACAUCUACGAAUUCGGAAGGAUGAAACAAUUUGGAGAAGUCCAGAUCGGAAGAGCACACGU
3. target 1 MT 5'PFS GCC 3'PFS AUU (mixed) RNA 1: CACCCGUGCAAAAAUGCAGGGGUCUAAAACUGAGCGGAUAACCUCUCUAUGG RNA 2: GGGAAUGGAUCCACAUCUACGAAUUCGCCCCAUAGAGAGGUUAUCCGCUCAAUUAGAUCGGAAGAGCACACGU
4. target 2 MT 5'PFS AUU 3'PFS UCG (mixed) RNA 1: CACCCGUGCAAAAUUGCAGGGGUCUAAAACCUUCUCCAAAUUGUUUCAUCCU RNA 2: GGGAAUGGAUCCACAUCUACGAAUUCAUUAGGAUGAAACAAUUUGGAGAAGUCGAGAUCGGAAGAGCACACGU
5. target 2 MT 5'PFS UAC 3'PFS CAA (mixed) RNA 1: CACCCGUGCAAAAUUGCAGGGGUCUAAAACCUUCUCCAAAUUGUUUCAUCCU RNA 2: GGGAAUGGAUCCACAUCUACGAAUUCUACAGGAUGAAACAAUUUGGAGAAGCAAAGAUCGGAAGAGCACACGU
6. target 2 MT 5'PFS CAG 3'PFS UAC (mixed) RNA 1: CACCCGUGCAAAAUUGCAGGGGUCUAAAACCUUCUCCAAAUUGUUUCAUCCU RNA 2: GGGAAUGGAUCCACAUCUACGAAUUCCAGAGGAUGAAACAAUUUGGAGAAGUACAGAUCGGAAGAGCACACGU
7. target 3 U7A,U8A (mixed) RNA 1: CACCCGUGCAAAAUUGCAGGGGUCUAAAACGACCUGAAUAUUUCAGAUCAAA RNA 2: GGGAAUGGAUCCACAUCUACGAAUUCGUUUUUGAUCUGAAAUAAACAGGUCUGCAGAUCGGAAGAGCACACGU

stdout:
1. 28
2. 24.2
3. 16.9
4. 7.8
5. 6
6. 5.3
7. 83

Go through the items and report each one's Kd.
1. target 1 MT 5'PFS GGG 3'PFS AGA (mixed) RNA 1: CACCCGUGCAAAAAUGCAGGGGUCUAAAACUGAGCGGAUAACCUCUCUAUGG RNA 2: GGGAAUGGAUCCACAUCUACGAAUUCGGGCCAUAGAGAGGUUAUCCGCUCAAGAAGAUCGGAAGAGCACACGU
2. target 1 insU 3' of 17,insG 3' of 3 (mixed) RNA 1: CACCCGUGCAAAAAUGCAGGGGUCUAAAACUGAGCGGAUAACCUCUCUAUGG RNA 2: GGGAAUGGAUCCACAUCUACGAAUUCGUACCAUAGUAGAGGUUAUCCGCUGCACCGAGAUCGGAAGAGCACACGU

stdout:
[23.9, 23.4]
